Values compiled from ChEMBL document CHEMBL3046106.

Hi there, I'd appreciate the recorded Activity for every entry that follows.
System: Echinochloa crus-galli
assay_details: Herbicidal activity against Echinochloa crus-galli (barnyard grass) at 40 g/hm2 postemergent application after 2 weeks
Format: functional
Report the value in % with no unit label.

Notebook: `CCOC(=O)/C(C)=C(\C)OC(=O)c1cc(Oc2ccc(C(F)(F)F)cc2Cl)ccc1Cl` , Activity read as 0

Notebook: `CCOC(=O)/C=C/COC(=O)c1cc(Oc2ccc(C(F)(F)F)cc2Cl)ccc1Cl` , Activity read as 15

Notebook: `C=C(COC(=O)c1cc(Oc2ccc(C(F)(F)F)cc2Cl)ccc1Cl)C(=O)OCCC` , Activity read as 5

Notebook: `C=C(COC(=O)c1cc(Oc2ccc(C(F)(F)F)cc2Cl)ccc1Cl)C(=O)OCC` , Activity read as 10
